Molecular target: UGT2B15 (Homo sapiens)
Sequence (P54855 24-530): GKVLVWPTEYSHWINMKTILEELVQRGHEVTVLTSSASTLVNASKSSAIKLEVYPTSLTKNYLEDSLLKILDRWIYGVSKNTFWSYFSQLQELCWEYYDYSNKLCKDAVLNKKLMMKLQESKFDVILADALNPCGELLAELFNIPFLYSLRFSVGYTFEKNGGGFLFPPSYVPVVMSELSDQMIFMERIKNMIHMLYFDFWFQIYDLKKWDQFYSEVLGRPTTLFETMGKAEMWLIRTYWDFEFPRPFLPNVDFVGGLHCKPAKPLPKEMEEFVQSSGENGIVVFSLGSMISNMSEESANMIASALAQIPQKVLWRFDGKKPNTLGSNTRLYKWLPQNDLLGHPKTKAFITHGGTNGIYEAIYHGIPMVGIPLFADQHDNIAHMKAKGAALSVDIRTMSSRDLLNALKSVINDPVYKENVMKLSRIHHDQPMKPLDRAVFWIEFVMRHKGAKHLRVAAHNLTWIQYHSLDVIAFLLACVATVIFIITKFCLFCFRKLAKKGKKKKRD
Type: in vitro ADME
pIC50: −log10 of the molar value. Starred links: 1 amine or outer side, 2 acyl side, 3 side chain; linkers in the order of their positions; H or OH if unused. Positions of bridges follow the written chain, without caps; N, C: chain ends. Non-standard residues stand in square brackets, D forms with d. Residues, ends and D or L forms follow the SMILES beside them. *: point of attachment. hTyr(3S-OH,4S-OH,3'-OSO3H) = N[C@H](C(=O)O)[C@H](O)[C@@H](O)c1ccc(O)c(OS(=O)(=O)O)c1; Orn(4R-OH,5R-OH) = O=C([C@H](C[C@@H](O)[C@@H](O)N[*:3])N[*:1])[*:2]; Pro(3S-OH,4S-Me) = C[C@H]1CN[C@H](C(=O)O)[C@H]1O; X1 = CCCCCOc1ccc(-c2cc(-c3ccc(C(=O)*)cc3)no2)cc1; Gln(3R-OH) = NC(=O)C[C@@H](O)[C@H](N)C(=O)O; Hyp = O=C(O)[C@@H]1C[C@@H](O)CN1
Response key: Y means pIC50 >= 4; N means pIC50 < 4.

{"compound": "CCN1CCN(C(=O)N[C@@H](C(=O)N[C@@H]2C(=O)N3C(C(=O)O)=C(CSc4nnnn4C)CS[C@H]23)c2ccc(O)cc2)C(=O)C1=O", "assigned class": "N"}
{"compound": "CCN1CCN(C(=O)N[C@@H](C(=O)N[C@@H]2C(=O)N3[C@@H]2SC(C)(C)[C@@H]3C(=O)O)c2ccccc2)C(=O)C1=O", "assigned class": "N"}
{"compound": "CO[C@@]1(NC(=O)Cc2cccs2)C(=O)N2C(C(=O)O)=C(COC(N)=O)CS[C@@H]21", "assigned class": "Y"}
{"compound": "Cc1onc(-c2c(F)cccc2Cl)c1C(=O)N[C@@H]1C(=O)N2[C@@H]1SC(C)(C)[C@@H]2C(=O)O", "assigned class": "N"}
{"compound": "C[C@@H](c1ncncc1F)[C@](O)(Cn1cncn1)c1ccc(F)cc1F", "assigned class": "Y"}
{"compound": "CC[C@H](C)C[C@H](C)CCCCCCCCC(=O)N[C@H]1C[C@@H](O)[C@@H](NCCN)NC(=O)[C@@H]2[C@@H](O)CCN2C(=O)[C@H]([C@H](O)CCN)NC(=O)[C@H]([C@H](O)[C@@H](O)c2ccc(O)cc2)NC(=O)[C@@H]2C[C@@H](O)CN2C(=O)[C@H]([C@@H](C)O)NC1=O", "assigned class": "Y"}
{"compound": "CCCCCOc1ccc(-c2cc(-c3ccc(C(=O)N[C@H]4C[C@@H](O)[C@@H](O)NC(=O)[C@@H]5[C@@H](O)[C@@H](C)CN5C(=O)[C@H]([C@H](O)CC(N)=O)NC(=O)[C@H]([C@H](O)[C@@H](O)c5ccc(O)c(OS(=O)(=O)O)c5)NC(=O)[C@@H]5C[C@@H](O)CN5C(=O)[C@H]([C@@H](C)O)NC4=O)cc3)no2)cc1 [A40, micafungin] (X1-[Orn(4R-OH,5R-OH)]T[Hyp][hTyr(3S-OH,4S-OH,3'-OSO3H)][Gln(3R-OH)][Pro(3S-OH,4S-Me)]; lactam 1-C)", "assigned class": "Y"}
